Quick reference for IC50 among some compounds
# targetSystem: CDK12/CyclinK (Homo sapiens (Human))
# Sequence (Q9NYV4 whole entry): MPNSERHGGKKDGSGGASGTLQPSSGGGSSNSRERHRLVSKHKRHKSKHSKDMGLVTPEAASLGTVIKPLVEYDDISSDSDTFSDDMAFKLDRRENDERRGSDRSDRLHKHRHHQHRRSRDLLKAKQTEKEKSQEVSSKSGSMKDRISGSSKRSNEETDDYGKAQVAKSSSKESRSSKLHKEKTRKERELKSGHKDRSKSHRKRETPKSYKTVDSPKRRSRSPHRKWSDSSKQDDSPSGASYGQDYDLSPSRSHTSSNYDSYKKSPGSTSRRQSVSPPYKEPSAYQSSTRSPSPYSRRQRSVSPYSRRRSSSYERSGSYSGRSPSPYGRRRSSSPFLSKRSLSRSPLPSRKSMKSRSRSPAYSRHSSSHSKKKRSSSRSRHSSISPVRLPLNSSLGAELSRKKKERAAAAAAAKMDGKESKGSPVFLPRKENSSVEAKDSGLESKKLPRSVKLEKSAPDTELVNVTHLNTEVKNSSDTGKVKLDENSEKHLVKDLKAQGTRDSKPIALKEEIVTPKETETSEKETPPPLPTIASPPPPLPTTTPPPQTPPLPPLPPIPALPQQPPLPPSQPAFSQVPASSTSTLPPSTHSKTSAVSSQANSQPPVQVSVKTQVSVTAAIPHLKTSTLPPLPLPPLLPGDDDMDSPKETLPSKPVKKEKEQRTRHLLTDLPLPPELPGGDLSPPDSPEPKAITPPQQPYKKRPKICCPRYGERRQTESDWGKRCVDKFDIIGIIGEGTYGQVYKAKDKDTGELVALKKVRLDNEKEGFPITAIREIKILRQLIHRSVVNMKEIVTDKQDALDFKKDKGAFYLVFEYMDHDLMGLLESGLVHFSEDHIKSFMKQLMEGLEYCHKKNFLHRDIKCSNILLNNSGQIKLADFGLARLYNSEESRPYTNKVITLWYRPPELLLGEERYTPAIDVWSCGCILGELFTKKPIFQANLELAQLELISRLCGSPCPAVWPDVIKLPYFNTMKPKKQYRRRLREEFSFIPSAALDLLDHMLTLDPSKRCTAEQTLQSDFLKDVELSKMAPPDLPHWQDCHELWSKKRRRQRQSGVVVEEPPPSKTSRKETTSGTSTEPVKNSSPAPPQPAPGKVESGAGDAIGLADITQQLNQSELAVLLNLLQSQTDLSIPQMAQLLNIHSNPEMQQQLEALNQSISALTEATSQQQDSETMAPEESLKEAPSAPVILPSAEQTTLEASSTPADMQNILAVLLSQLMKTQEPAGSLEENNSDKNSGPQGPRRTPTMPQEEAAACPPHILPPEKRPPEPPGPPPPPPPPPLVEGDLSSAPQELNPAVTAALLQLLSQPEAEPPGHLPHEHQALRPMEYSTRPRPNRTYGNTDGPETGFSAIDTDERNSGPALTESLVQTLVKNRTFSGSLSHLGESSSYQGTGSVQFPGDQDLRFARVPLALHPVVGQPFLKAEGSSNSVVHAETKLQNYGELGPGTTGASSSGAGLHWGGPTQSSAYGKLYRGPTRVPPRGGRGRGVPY
# Sequence (O75909 whole entry partner): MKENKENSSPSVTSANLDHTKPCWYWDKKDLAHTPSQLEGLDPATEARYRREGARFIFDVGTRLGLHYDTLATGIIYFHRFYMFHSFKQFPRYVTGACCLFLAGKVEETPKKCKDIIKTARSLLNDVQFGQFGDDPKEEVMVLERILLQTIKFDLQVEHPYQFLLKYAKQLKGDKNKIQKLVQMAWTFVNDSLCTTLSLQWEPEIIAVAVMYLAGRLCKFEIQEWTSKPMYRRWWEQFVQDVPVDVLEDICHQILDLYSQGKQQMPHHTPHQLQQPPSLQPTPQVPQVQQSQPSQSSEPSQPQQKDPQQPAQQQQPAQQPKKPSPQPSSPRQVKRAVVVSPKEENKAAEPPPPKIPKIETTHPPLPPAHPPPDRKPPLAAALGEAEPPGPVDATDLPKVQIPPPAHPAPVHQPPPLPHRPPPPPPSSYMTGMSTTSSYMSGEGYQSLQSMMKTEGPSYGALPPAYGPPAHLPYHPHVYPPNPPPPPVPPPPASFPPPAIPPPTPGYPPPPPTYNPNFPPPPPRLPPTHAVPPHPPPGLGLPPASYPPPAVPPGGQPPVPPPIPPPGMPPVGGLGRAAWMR
# experimentDescription: CDK12/cyclinK enzyme activity
# Format: biochemical
# experimentalConditions: in vitro
measuredParameter: IC50 (µM)

{"columns": ["compoundStructureString", "reportedMeasurement"],
 "data": [
  ["CC(C)n1cnc2c(NCc3ccc(-c4cccnc4)nc3)nc(-c3ccccc3)nc21", 0.623],
  ["CCn1cnc2c(NCc3ccc(-c4ccccn4)nc3)nc(-c3cnc(N)nc3)nc21", 0.077],
  ["Cc1cc(-c2ccc(CNc3nc(-c4cccnc4)nc4c3ncn4C(C)C)nc2)ccn1", 0.481],
  ["CCn1cnc2c(NCc3ccc(-c4ccnc(C)c4)nc3)nc(-c3cncnc3)nc21", 0.056]
]}

* * *

# experimentDescription: Liver microsomal metabolic stability
# Type: in vitro ADME
# experimentalConditions: dog liver microsomes
# strict inequality: Liver microsomal metabolic stability (% remaining amount) Dog < 50% yields 1, everything else yields -1

{"columns": ["compoundStructureString", "labelClass"],
 "data": [
  ["CCn1cnc2c(NCc3ccc(-c4ccnc(C)c4)nc3)nc(-c3ccc(N)nc3)nc21", 1],
  ["CCn1cnc2c(NCc3ccc(-c4ccnc(C)c4)nc3)nc(-c3cnc(N)nc3)nc21", -1],
  ["CCn1cnc2c(NCc3ccc(-c4ccccn4)nc3)nc(-c3ccc(N)nc3)nc21", 1],
  ["CCn1cnc2c(NCc3ccc(-c4ccnc(C)c4)nc3)nc(-c3cncnc3)nc21", -1],
  ["CCn1cnc2c(NCc3ccc(-c4ccccn4)nc3)nc(-c3cnc(N)nc3)nc21", -1]
]}

* * *

Quick reference for activity at 10 µM among some compounds
# targetSystem: UniProt:P05177
# Sequence (P05177 whole entry): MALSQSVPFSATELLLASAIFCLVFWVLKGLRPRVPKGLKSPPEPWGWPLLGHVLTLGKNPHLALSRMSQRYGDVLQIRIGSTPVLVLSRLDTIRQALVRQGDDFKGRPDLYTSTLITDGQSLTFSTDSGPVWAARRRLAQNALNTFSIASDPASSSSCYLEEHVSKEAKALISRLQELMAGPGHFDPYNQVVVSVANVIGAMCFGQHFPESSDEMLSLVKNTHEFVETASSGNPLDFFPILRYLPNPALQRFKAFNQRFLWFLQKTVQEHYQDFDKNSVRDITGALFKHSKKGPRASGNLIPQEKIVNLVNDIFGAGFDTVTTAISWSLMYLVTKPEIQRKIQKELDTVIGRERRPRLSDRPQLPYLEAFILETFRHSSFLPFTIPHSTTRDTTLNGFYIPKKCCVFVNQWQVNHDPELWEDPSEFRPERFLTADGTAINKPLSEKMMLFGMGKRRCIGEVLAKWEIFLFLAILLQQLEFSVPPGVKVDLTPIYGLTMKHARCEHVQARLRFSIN
# experimentDescription: in vitro
# Type: in vitro ADME

{"columns": ["compoundStructureString", "activity at 10 µM [%]"],
 "data": [
  ["CCn1cnc2c(NCc3ccc(-c4ccnc(C)c4)nc3)nc(-c3ccc(N)nc3)nc21", 59.3],
  ["CCn1cnc2c(NCc3ccc(-c4ccccn4)nc3)nc(-c3ccc(N)nc3)nc21", 74.7],
  ["CCn1cnc2c(NCc3ccc(-c4ccnc(C)c4)nc3)nc(-c3cncnc3)nc21", 68.6],
  ["CCn1cnc2c(NCc3ccc(-c4ccccn4)nc3)nc(-c3cnc(N)nc3)nc21", 87.6],
  ["CCn1cnc2c(NCc3ccc(-c4ccnc(C)c4)nc3)nc(-c3cnc(N)nc3)nc21", 74.9]
]}

* * *

Quick reference for Liver microsomal metabolic stability (% remaining amount) Mouse among some compounds
# experimentDescription: Liver microsomal metabolic stability
# Type: in vitro ADME
# experimentalConditions: mouse liver microsomes
measuredParameter: Liver microsomal metabolic stability (% remaining amount) Mouse (%)

{"columns": ["compound", "reportedMeasurement"],
 "data": [
  ["CCn1cnc2c(NCc3ccc(-c4ccccn4)nc3)nc(-c3ccc(N)nc3)nc21 [Example 53]", 49.9],
  ["CCn1cnc2c(NCc3ccc(-c4ccccn4)nc3)nc(-c3cnc(N)nc3)nc21 [Example 54]", 85.0],
  ["CCn1cnc2c(NCc3ccc(-c4ccnc(C)c4)nc3)nc(-c3cncnc3)nc21 [Example 51]", 34.0],
  ["CCn1cnc2c(NCc3ccc(-c4ccnc(C)c4)nc3)nc(-c3ccc(N)nc3)nc21 [Example 49]", 35.3],
  ["CCn1cnc2c(NCc3ccc(-c4ccnc(C)c4)nc3)nc(-c3cnc(N)nc3)nc21 [Example 50]", 45.0]
]}
